Molecular target: Recombinant human PDK1 enzyme (aa 52-556) (Homo sapiens (Human))
Sequence (O15530 52-556): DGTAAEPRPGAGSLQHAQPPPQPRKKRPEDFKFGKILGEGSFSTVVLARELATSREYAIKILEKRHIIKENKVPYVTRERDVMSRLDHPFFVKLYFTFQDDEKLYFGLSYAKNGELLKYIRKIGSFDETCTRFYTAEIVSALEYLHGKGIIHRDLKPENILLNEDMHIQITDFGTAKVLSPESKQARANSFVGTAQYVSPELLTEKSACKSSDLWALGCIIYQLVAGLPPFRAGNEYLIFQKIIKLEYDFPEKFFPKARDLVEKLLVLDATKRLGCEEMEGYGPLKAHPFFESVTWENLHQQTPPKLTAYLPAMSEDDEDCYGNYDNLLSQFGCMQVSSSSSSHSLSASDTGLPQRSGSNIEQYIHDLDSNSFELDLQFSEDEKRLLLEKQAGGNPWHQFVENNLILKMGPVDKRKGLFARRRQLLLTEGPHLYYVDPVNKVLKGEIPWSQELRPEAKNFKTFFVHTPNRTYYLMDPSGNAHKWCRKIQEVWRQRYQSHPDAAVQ
Assay: PDK1 kinase assay
Settings: 25 μM ATP solution with gamma-P33-ATP, PDKtide substrate, 90 min at RT
measurement_type: IC50 (nM)

Consider the worked cases shown below.
>  <compound>
Cc1nc2cnc3ccc(C#CCNC(=O)c4ccnn(Cc5ccc(F)c(F)c5)c4=O)cc3c2n1C1CCN(C(C)C)CC1 [III-4]

>  <result_units>
nM

>  <result>
21

$$$$
>  <compound>
COCc1nc2cnc3ccc(C#CCNC(=O)c4cncn(Cc5ccc(F)c(F)c5)c4=O)cc3c2n1C [V-7]

>  <result_units>
nM

>  <result>
41

$$$$
>  <compound>
CCn1c(C)nc2cnc3ccc(C#CCNC(=O)c4cncn(Cc5ccc(F)c(F)c5)c4=O)cc3c21 [III-33]

>  <result_units>
nM

>  <result>
2

$$$$
>  <compound>
CCN1CCC(n2cnc3cnc4ccc(C#CCNC(=O)c5c(C)n(C)n(Cc6ccc(F)c(F)c6)c5=O)cc4c32)CC1 [III-20]

>  <result_units>
nM

>  <result>
32

$$$$
>  <compound>
O=C(NCC#Cc1ccc2ncc3ncn(CCO)c3c2c1)c1cccn(Cc2ccc(F)c(F)c2)c1=O [III-11]

>  <result_units>
nM

>  <result>
18

$$$$
>  <compound>
Cc1nc2cnc3ccc(C#CCNC(=O)c4cccn([C@@H](CO)c5ccccc5)c4=O)cc3c2n1C(C)C [II-21]

>  <result_units>
nM

>  <result>
2

$$$$
>  <compound>
Cn1c(-c2ccccc2)nc2cnc3ccc(C#CCNC(=O)c4cncn(Cc5ccc(F)c(F)c5)c4=O)cc3c21 [V-2]

>  <result_units>
nM

>  <result>
72

$$$$
>  <compound>
O=C(NCC#Cc1ccc2ncc3ncn([C@@H]4CCNC4)c3c2c1)c1cncn(Cc2ccc(F)c(F)c2)c1=O [I-13]

>  <result_units>
nM

>  <result>
16

$$$$

a. O=C(NCC#Cc1ccc2ncc3nc[nH]c3c2c1)c1cncn(Cc2ccc(F)c(F)c2)c1=O [I-1]
b. CN1CC[C@@H](n2cnc3cnc4ccc(C#CCNC(=O)c5cncn(Cc6ccc(F)c(F)c6)c5=O)cc4c32)C1 [I-6]
Which gives the smaller IC50 number: a or b ? Please reply using the label of the selected record. a
(a: 1 nM, b: 26 nM)
